Molecular target: T1, human CD70, recombinant, N-terminally biotinylated (residues 39-193) (human, UniProt P32970 39-193, N-terminal biotin)
T1 construct: range 39-193; the same entry is used there; also called biotinylated human CD70; CD70 biotin
T1 sequence (looked up): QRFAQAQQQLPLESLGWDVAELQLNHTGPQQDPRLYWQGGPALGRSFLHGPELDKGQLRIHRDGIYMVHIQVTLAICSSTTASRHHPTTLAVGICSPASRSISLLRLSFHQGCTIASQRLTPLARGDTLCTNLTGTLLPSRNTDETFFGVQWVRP
Experiment: SPR
observable: pKd
Please note pKd is a logarithmic value: minus log10 of concentration in mol/L. Answer with that number alone.

binder	meas.value
55-TC4-IX-G04 (scFv, His-tagged) scFv: QVQLLESGGGVVQPGRSLRLSCAASGFTFSSYAMHWVRQAPGKGLEWVAVISYDGSNKYYADSVKGRFTISRDNSKNTLYLQMNSLRAEDTAVYYCARGLGFGSGWYEYVDAFDIWGQGTMVTVSSGGSGGSGGSGGSQSVLTQPASVSGSPGQSITISCTGTSSDVGSYNLVSWYQQHPGKAPKLMIYEVSKRPSGVSNRFSGSKSGNTASLTISGLQAEDEADYYCSSYRSNNTPWVFGGGTKLTVL	6.01
52-TC7-VIII-C02 (scFv, His-tagged) scFv: QVQLLESGGGVVQPGRSLRLSCAASGFTFSSYGMHWVRQAPGKGLEWVAVISYDGSNKYYADSVKGRFTISRDNSKNTLYLQMNSLRAEDTAVYYCAKGAYYYGSVSGMDVWGQGTTVTVSSGGSGGSGGSGGSSYELTQPVSVSVALGQTARLTCAGNNIGSKNVHWYQQKPSQAPVLVIYNDNIRPNFGIPERFSGSNSGNTATLTISSAQAGDEADYYCQVWDSSTAEVFGGGTKLTVL	7.19

Would you kindly look at the next entry?
Problem: Fill in: pKd of 16-TC4-I-C11 (scFv, His-tagged) scFv: QVQLVQSGAEVKKPGSSVKVSCKASGGTFSSYAISWVRQAPGQGLEWMGWISAYNGNTNYAQKLQGRVTMTTDTSTSTAYMELRSLRSDDTAVYYCARVTPPGWLGNMDVWGKGTTVTVSSGGSGGSGGSGGSSYELMQSPSVSVAPGQTARITCGGRDIGSKSVHWYQQKPGQAPVLVVYDDSDRPSGIPERLSGSNFGNEATLTISRVEAGDEGDYFCQVWDSSTDVVFGGGTKVTVL is ___
Result: 7.40
